tested on: S1507-2; experiment: drug sensitivity score (DSS, CellTox-Green cytotoxicity, 72 h) (DSS (dimensionless)); higher = more cytotoxic; extreme values may be limits of the assay
Observable: drug sensitivity score
Output spec: single numeric token, no unit.

1) Cc1ccc(-c2cc(C(F)(F)F)nn2-c2ccc(S(N)(=O)=O)cc2)cc1 [Celecoxib] (max concentration tested 10000 nM) = 0

Prompt line: Given the entry Nc1nc(Cl)nc2c1ncn2[C@@H]1O[C@H](CO)[C@@H](O)[C@@H]1F [Clofarabine] (max concentration tested 10000 nM) , report its measured drug sensitivity score.
Response line: 3.61

Prompt line: And for CC(C)C[C@H](NC(=O)[C@@H](COC(C)(C)C)NC(=O)[C@H](Cc1ccc(O)cc1)NC(=O)[C@H](CO)NC(=O)[C@H](Cc1c[nH]c2ccccc12)NC(=O)[C@H](Cc1cnc[nH]1)NC(=O)[C@@H]1CCC(=O)N1)C(=O)N[C@@H](CCCNC(=N)N)C(=O)N1CCC[C@H]1C(=O)NNC(N)=O [Goserelin] (max concentration tested 10000 nM) ?
Response line: 0.454

Prompt line: And for CC(=O)N(O)CCCCCNC(=O)CCC(=O)N(O)CCCCCNC(=O)CCC(=O)N(O)CCCCCN [Deferoxamine aq] (max concentration tested 10000 nM) ?
Response line: 0.026

----------
# maps each entry to its % inhibition
system: YST-1; test: % inhibition of CellTiter-Glo viability at highest tested concentration (72 h), relative to DMSO and benzethonium chloride controls; higher = more inhibition
Numeric answer only, unit % assumed.

Prompt line: Given the entry Cc1sc2c(c1C)C(c1ccc(Cl)cc1)=N[C@@H](CC(=O)OC(C)(C)C)c1nnc(C)n1-2 [JQ1] (max concentration tested 10000 nM) , report its measured % inhibition.
Response line: 72.6

Prompt line: And for CON(C)C(=O)N1N=C(c2cc(F)ccc2F)S[C@@]1(CCCN)c1ccccc1 [Filanesib] (max concentration tested 1000 nM) ?
Response line: 78.3

Prompt line: And for CO[C@H](C(=O)[C@@H](O)[C@@H](C)O)[C@@H]1Cc2cc3cc(O[C@H]4C[C@@H](O[C@H]5C[C@@H](O)[C@H](O)[C@@H](C)O5)[C@@H](O)[C@@H](C)O4)c(C)c(O)c3c(O)c2C(=O)[C@H]1O[C@H]1C[C@@H](O[C@H]2C[C@@H](O[C@H]3C[C@](C)(O)[C@H](O)[C@@H](C)O3)[C@H](O)[C@@H](C)O2)[C@H](O)[C@@H](C)O1 [Plicamycin] (max concentration tested 10000 nM) ?
Response line: 101

Prompt line: And for CCCCc1nc2cc(/C=C/C(=O)NO)ccc2n1CCN(CC)CC [Pracinostat] (max concentration tested 10000 nM) ?
Response line: 100

----------
# maps each entry to its relative IC50
system: HSC1; assay: relative IC50 (inflection point of fitted dose-response curve, CellTox-Green cytotoxicity, 72 h; top asymptote may be below 50%); higher = less potent
Numeric answer only, unit µM assumed.

Examples from the recorded data:
1. Nc1ccn([C@@H]2O[C@H](CO)[C@@H](O)C2(F)F)c(=O)n1 = 0.00857
2. CO[C@@H](C(=O)N1Cc2[nH]nc(NC(=O)c3ccc(N4CCN(C)CC4)cc3)c2C1)c1ccccc1 = 2.69
3. C=CCNC1=C2C[C@@H](C)C[C@H](OC)[C@H](O)[C@@H](C)/C=C(\C)[C@H](OC(N)=O)[C@@H](OC)/C=C\C=C(/C)C(=O)NC(=CC1=O)C2=O = 0.321
4. O=c1[nH]c(=O)n([C@H]2C[C@H](O)[C@@H](CO)O2)cc1F = 3.23
5. Cc1ccc([N+](=O)[O-])cc1S(=O)(=O)N(C)/N=C/c1cnc2ccc(Br)cn12 = 0.299
6. Nc1nc(Cl)nc2c1ncn2[C@H]1C[C@H](O)[C@@H](CO)O1 = 0.35

Prompt line: Given the entry CN1CC[C@H](c2c(O)cc(O)c3c(=O)cc(-c4ccccc4Cl)oc23)[C@H](O)C1 , report its measured relative IC50.
Response line: 0.484

----------
tested on: HS-PSS; test: drug sensitivity score (DSS, CellTiter-Glo viability, 72 h) (DSS (dimensionless)); higher = more sensitive; extreme values may be limits of the assay
Each entry gets NOT MET if its drug sensitivity score stays under 0.6, and MET if its drug sensitivity score is 0.6 or above.

These recorded examples may help you get a feel for the data.
1. COc1cc(OC)c(/C=C/S(=O)(=O)Cc2ccc(OC)c(NCC(=O)O)c2)c(OC)c1 [Rigosertib] (max concentration tested 10000 nM) = MET
2. c1cc(CN2CCCNCCNCCCNCC2)ccc1CN1CCCNCCNCCCNCC1 [Plerixafor] (max concentration tested 10000 nM) = NOT MET
3. C[C@@H](Oc1cc(-c2cnn(C3CCNCC3)c2)cnc1N)c1c(Cl)ccc(F)c1Cl [Crizotinib] (max concentration tested 1000 nM) = MET
4. CC(=O)[C@]1(O)Cc2c(O)c3c(c(O)c2[C@@H](O[C@H]2C[C@H](N)[C@H](O)[C@H](C)O2)C1)C(=O)c1ccccc1C3=O [Idarubicin] (max concentration tested 1000 nM) = MET
5. C[C@]1(c2nc3c(C(N)=O)cccc3[nH]2)CCCN1 [Veliparib] (max concentration tested 10000 nM) = NOT MET

// next entry
Prompt line: Hi, just wondering whether O=C(c1ccc(C(=O)N2CCC(N3CCCC3)CC2)c(Nc2ccccc2)c1)N1CCC(N2CCCC2)CC1 [UNC1215] (max concentration tested 30000 nM) shows drug sensitivity score of 0.6 or higher.
Response line: MET

----------
# maps each entry to its % inhibition
tested on: ST8814; assay: % inhibition of CellTiter-Glo viability at highest tested concentration (72 h), relative to DMSO and benzethonium chloride controls; higher = more inhibition
Numeric answer only, unit % assumed.

Examples from the recorded data:
1. CCc1c2c(nc3ccc(OC(=O)N4CCC(N5CCCCC5)CC4)cc13)-c1cc3c(c(=O)n1C2)COC(=O)[C@]3(O)CC [Irinotecan] (max concentration tested 10000 nM) = 93.9
2. O=C(Nc1cccnc1)N1CCC(Cc2cccc(Oc3ccc(C(F)(F)F)cn3)c2)CC1 [PF-3845] (max concentration tested 10000 nM) = 11.5
3. COc1nc(N)nc2c1ncn2[C@@H]1O[C@H](CO)[C@@H](O)[C@@H]1O [Nelarabine] (max concentration tested 10000 nM) = -1.03
4. CN(C)C[C@@H]1CCn2cc(c3ccccc32)C2=C(C(=O)NC2=O)c2cn(c3ccccc23)CCO1 [Ruboxistaurin] (max concentration tested 10000 nM) = 39.6
5. CC(C)N(CCCNC(=O)Nc1ccc(C(C)(C)C)cc1)C[C@H]1O[C@@H](n2cc(Br)c3c(N)ncnc32)[C@H](O)[C@@H]1O [SGC0946] (max concentration tested 10000 nM) = 52.9

# next compound below
Prompt line: Form: Entry = CN[C@@H]1C[C@H]2O[C@@](C)([C@@H]1OC)n1c3ccccc3c3c4c(c5c6ccccc6n2c5c31)C(=O)N[C@H]4O [UCN-01] (max concentration tested 10000 nM) | System = ST8814 | % inhibition = ____
Response line: 105

----------
# maps each entry to its relative IC50
test system: S1507-2; assay: relative IC50 (inflection point of fitted dose-response curve, CellTox-Green cytotoxicity, 72 h; top asymptote may be below 50%); higher = less potent
Numeric answer only, unit µM assumed.

1) C[C@H]1C=C2C(=O)O[C@H]3CC[C@@H](C1)[C@@]23O [Galiellalactone] = 15.7

# next compound below
Prompt line: Form: Entry = CC(C)C[C@H](NC(=O)[C@H](Cc1ccccc1)NC(=O)c1cnccn1)B(O)O [Bortezomib] | System = S1507-2 | relative IC50 = ____
Response line: 0.00894

----------
# maps each entry to its drug sensitivity score
system: HSC1 (primary human Schwann cells); assay: drug sensitivity score (DSS, CellTox-Green cytotoxicity, 72 h) (DSS (dimensionless)); higher = more cytotoxic; extreme values may be limits of the assay
Output spec: single numeric token, no unit.

Examples from the recorded data:
1) NC(=O)Nc1cc(-c2cccc(F)c2)sc1C(=O)N[C@H]1CCCNC1 [AZD7762] (max concentration tested 1000 nM) = 3.66
2) CN1CCN(CCOc2cc(OC3CCOCC3)c3c(Nc4c(Cl)ccc5c4OCO5)ncnc3c2)CC1 [Saracatinib] (max concentration tested 10000 nM) = 0
3) CN(C)CCOc1ccc(/C(=C(/CCCl)c2ccccc2)c2ccccc2)cc1 [Toremifene] (max concentration tested 10000 nM) = 0
4) CC(C)Cn1cnc2c(N)nc3ccccc3c21 [Imiquimod] (max concentration tested 2500 nM) = 0
5) C[C@]12C=CC(=O)C=C1CC[C@@H]1[C@@H]2C(=O)C[C@@]2(C)[C@H]1CC[C@]2(O)C(=O)CO [Prednisone] (max concentration tested 10000 nM) = 0
6) Nc1ncn([C@@H]2O[C@H](CO)[C@@H](O)[C@H]2O)c(=O)n1 [Azacitidine] (max concentration tested 10000 nM) = 0
7) O=C1NC(=O)[C@@H](c2cn3c4c(cccc24)CCC3)[C@@H]1c1c[nH]c2ccccc12 [Tivantinib] (max concentration tested 1000 nM) = 1.43
8) COc1cc([C@@H]2c3cc4c(cc3[C@@H](O[C@@H]3O[C@@H]5CO[C@@H](c6cccs6)O[C@H]5[C@H](O)[C@H]3O)[C@H]3COC(=O)[C@H]23)OCO4)cc(OC)c1O [Teniposide] (max concentration tested 10000 nM) = 11

Prompt line: Given the entry Nc1nccc(-c2c(-c3ccc(F)cc3)ncn2C2CCCCC2)n1 (max concentration tested 10000 nM) , report its measured drug sensitivity score.
Response line: 0

Prompt line: And for Cc1c(CN2CCN(C(=O)[C@H](C)O)CC2)sc2c(N3CCOCC3)nc(-c3cnc(N)nc3)nc12 [GDC-0980] (max concentration tested 10000 nM) ?
Response line: 0

Prompt line: And for Clc1ccc(Nc2nnc(Cc3ccncc3)c3ccccc23)cc1 [Vatalanib] (max concentration tested 10000 nM) ?
Response line: 0

Prompt line: And for CC/C(=C(\c1ccc(O)cc1)c1ccc(OCCN(C)C)cc1)c1ccccc1 [4-hydroxytamoxifen] (max concentration tested 10000 nM) ?
Response line: 1.81
